Values compiled from patent US20240279201A1.

Test system: Wnt/β-Catenin signaling pathway
assay summary: Wnt signaling luciferase (TOPflash) reporter gene assay
Assay type: cell-based
measurement setup: luciferase reporter gene assay; mean of three independent experiments; read-out: IC50 (nM) to inhibit the Wnt signaling activity
Excerpt: A dual-luciferase gene reporter assay was used to test inhibitory activities of new compounds on Wnt signaling. […] Therefore, the effects of new compounds on AMPK was examined. […]
Assign IC50 to each entry below.

Use these answered entries as a reference point.
[
  {
    "compound": "Cc1ccc(-n2nnc(C(=O)Nc3nc4ccccc4s3)c2C)c(C)c1 [YA4039]",
    "IC50": "17 nM"
  },
  {
    "compound": "O=C(Nc1ccc2ccccc2n1)c1nnn(-c2ccccc2Cl)n1 [YA70033]",
    "IC50": "> 1000 nM"
  },
  {
    "compound": "Cc1c(C(=O)Nc2cnc3ccccc3n2)nnn1-c1ccccc1F [YA6138]",
    "IC50": "0.15 nM"
  },
  {
    "compound": "Cc1ccccc1-n1nnc(C(=O)Nc2ccc3cccnc3c2)c1C [YA6162]",
    "IC50": "> 1000 nM"
  },
  {
    "compound": "Cc1ccccc1-n1nnc(C(=O)Nc2ccc3ccc(Br)cc3n2)c1C [YA1126]",
    "IC50": "> 1000 nM"
  },
  {
    "compound": "Cc1ccccc1-n1nnc(C(=O)Nc2nc(-c3ccccc3)c(-c3ccccc3)s2)c1C [YA4133]",
    "IC50": "> 1000 nM"
  },
  {
    "compound": "COc1ccccc1-n1nnc(C(=O)Nc2ccc3ccccc3n2)n1 [YA70034]",
    "IC50": "> 1000 nM"
  },
  {
    "compound": "Cc1cc(/C=C/c2ccc3cc(N(C)C)ccc3[n+]2C)c(C)n1-c1ccccc1 [Pyrvinium, reference compound]",
    "IC50": "599 nM"
  },
  {
    "compound": "CCc1c(C(=O)Nc2nc3ccc(F)cc3s2)nnn1-c1ccccc1F [YA4165]",
    "IC50": "0.5 nM"
  },
  {
    "compound": "Cc1ccccc1-n1nnc(C(=O)Nc2ccc3cccc(CN4CCN(C(=O)OC(C)(C)C)CC4)c3n2)c1C [YA6160]",
    "IC50": "> 1000 nM"
  }
]

List reported IC50 for each of these compounds:
1. O=C(Nc1cnc2ccccc2n1)c1nnn(-c2ccccc2)n1 [YA6177]
2. COc1ccc2nc(NC(=O)c3nnn(-c4ccccc4C)c3C)sc2c1 [YA4091]

result:
["> 1000 nM", "> 1000 nM"]

List reported IC50 for each of these compounds:
1. Cc1ccccc1-n1nnc(C(=O)Nc2nc3cc(Cl)ccc3s2)c1C [YA4013]
2. Cc1ccccc1-n1nnc(C(=O)Nc2ccc3ccccc3n2)n1 [YA70031]

result:
["202 nM", "> 1000 nM"]

List reported IC50 for each of these compounds:
1. CC(C)c1c(C(=O)Nc2nc3ccccc3s2)nnn1-c1ccccc1F [YA4005]
2. Cc1c(C(=O)Nc2nc(-c3ccccc3)cs2)cnn1-c1ccccc1Br [YA4087]

result:
8.8 nM
> 1000 nM
